Listed here: items and their measured koff.
# Target entity: T1, recombinant human CD70 (Flag-TNC-CD70) (human, UniProt P32970 39-193)
# T1 construct: extracellular domain; Captured by anti-Flag mAb in ELISA; as 'recombinant human CD70' immobilised on Biacore CM5 chips; TNC is for trimerisation; also called recombinant CD70; human recombinant CD70; not shown: Flag tag and TNC trimerisation domain
# T1 sequence (looked up): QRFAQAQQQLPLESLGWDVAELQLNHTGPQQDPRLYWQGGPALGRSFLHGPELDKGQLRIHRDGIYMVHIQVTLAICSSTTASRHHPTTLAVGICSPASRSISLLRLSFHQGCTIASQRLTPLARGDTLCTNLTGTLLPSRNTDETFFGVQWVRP
# Test method notes: Biacore; recombinant human CD70 on CM5 chip; Fab injected
Output spec: scalar in s⁻¹, unitless text.

Study these solved cases before continuing.
• 8B12 Fab (Fab, V domains shown, Llama-derived Fab) VH: EVQLVESGGGLVQPGGSLRLSCAASGFTFSVYYMNWVRQAPGKGLEWVSDINNEGDTTYYADSVKGRFTISRDNAKNTLTLQMDSLKPEDTALYYCVRDAGYSNHVPIFDSWGQGTQVIVAS VL: QTVVTQEPSLSVSPGGTVTLTCGLSSGSVTSSNYPGWYQQTPGQAPRVLIYNTNNRHSGVPSRYSGSISGNKAALTITGAEPEDEADYYCNLHLGSYTPMFGGGTKLTVLG = 0.00036
• 24E3 Fab (Fab, V domains shown, Llama-derived Fab) VH: EVQLVESGGGLVQPGGSLRLSCAASGFTFSVYYMNWVRQAPGKGLEWVSDINNEGGTTYYADSVKGRFTISRDNAKNTLTLQMNSLKPEDTALYYCVRDAGYSNHVPIFDSWGQGTQVIVAS VL: QAVVTQEPSLSVSPGGTVTLTCGLTSGSVTSDNFPVWYQQTPGQAPRLLIYTINSRHSGVPSRFSGSITGNKAILTITGAQPEDEADYYCALYLENFANEFGGGTRLTVLG = 8e-05

Consider the record given below.
Which koff value belongs to 24B6 Fab (Fab, V domains shown, Llama-derived Fab) VH: EVQLQESGGGVVQPGGSLRLSCAASGFTFDDYAMSWVRQAPGKGLEWVSSIYMYDSSTYYADSVKGRFTISTDNAKNTVYLQMNSLKSEDTAVYYCAKDINRSYGSSWSHFGPIFSSWGQGTQVTVSS VL: QPVLTQPSAVSVSLGQTARITCQGGYYTHWYQQKPGQAPVLVIYINNNRPSGIPERFSGSISGNTATLTISGAQVEDEADYYCQSGSSSTIPVFGGGTKLTVLG ?
0.0001
